Hello, the source for this data is the Deep4Chem optical property database, in case you need it.

# assay info: photoluminescence quantum yield (fraction); solvent given as SMILES
# test settings: in C1CCOC1
endpoint: photoluminescence quantum yield
Answer with the value's number alone.

>>> experimental_result("CC1(C)CC(=O)C2=C(C1)Oc1ccc3ccc(O)cc3c1C2c1ccccn1 (stereo unspecified)")
0.0027

Value lookup for photoluminescence quantum yield; key = CCN1C(=O)C(C2C(=O)c3c4ccccc4cc4cc5ccccc5c2c34)C(=O)N(CC)C1=S (stereo unspecified)
0.205

Value lookup for photoluminescence quantum yield; key = CC1(C)Oc2c(c3nc4ccccc4nc3c3ccccc23)CC1Br (stereo unspecified)
0.39

Value lookup for photoluminescence quantum yield; key = CN(C)c1ccc(/C=C/C(=O)O)cc1
0.0134

Value lookup for photoluminescence quantum yield; key = O=C(O)c1ccc(C(=O)O)c2cc3ccccc3cc12
0.61

Value lookup for photoluminescence quantum yield; key = O=P1(c2ccccc2)C(c2ccccc2)=Cc2ccccc21 (stereo unspecified)
0.3
